Source: patent US20250129078A1

testedSystem: ErbB2 V777L (Homo sapiens (Human), UniProt P04626, V777L)
Sequence (P04626 23-1255 V777L): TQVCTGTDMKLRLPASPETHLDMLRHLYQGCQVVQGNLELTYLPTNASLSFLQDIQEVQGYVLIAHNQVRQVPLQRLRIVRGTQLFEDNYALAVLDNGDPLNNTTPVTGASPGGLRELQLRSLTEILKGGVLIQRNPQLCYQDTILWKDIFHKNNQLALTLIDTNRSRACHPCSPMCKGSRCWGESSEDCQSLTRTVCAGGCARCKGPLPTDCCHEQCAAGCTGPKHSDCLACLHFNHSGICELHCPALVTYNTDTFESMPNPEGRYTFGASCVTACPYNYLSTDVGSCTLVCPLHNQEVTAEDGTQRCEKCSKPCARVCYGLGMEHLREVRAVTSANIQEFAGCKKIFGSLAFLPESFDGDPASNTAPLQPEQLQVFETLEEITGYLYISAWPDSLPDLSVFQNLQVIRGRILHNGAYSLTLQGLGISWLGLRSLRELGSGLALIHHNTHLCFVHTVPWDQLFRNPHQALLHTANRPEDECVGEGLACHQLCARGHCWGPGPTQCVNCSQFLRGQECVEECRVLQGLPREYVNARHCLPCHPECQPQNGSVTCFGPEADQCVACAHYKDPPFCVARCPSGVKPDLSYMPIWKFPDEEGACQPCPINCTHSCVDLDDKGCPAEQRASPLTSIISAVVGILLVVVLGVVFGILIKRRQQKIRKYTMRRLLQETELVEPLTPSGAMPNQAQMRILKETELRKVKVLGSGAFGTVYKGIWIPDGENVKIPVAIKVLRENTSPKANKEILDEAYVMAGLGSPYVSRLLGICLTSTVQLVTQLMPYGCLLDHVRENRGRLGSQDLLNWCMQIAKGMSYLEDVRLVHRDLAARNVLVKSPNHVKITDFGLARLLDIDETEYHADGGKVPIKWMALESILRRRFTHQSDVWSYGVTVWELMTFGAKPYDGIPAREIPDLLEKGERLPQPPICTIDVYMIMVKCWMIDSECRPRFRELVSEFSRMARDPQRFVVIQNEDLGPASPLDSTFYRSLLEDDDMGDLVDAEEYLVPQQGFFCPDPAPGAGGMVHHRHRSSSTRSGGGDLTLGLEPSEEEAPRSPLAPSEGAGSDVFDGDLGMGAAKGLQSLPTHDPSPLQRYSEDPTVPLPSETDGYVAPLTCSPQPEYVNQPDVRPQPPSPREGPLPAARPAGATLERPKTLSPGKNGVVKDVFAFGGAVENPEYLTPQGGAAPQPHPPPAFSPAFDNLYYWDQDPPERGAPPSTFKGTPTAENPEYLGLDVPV
assayProtocol: ErbB enzyme assay (CisBio HTRF-KinEASE-TK), ErbB2 V777L
Format: biochemical
Entries and their IC50 values follow.
testReadout: IC50

1) C=CC(=O)N(C)CCOc1ncc2ncnc(Nc3ccc(Oc4ccc5c(c4)ncn5C)c(C)c3)c2n1 [Compound 384]: 50 to 100 nM
2) C=CC(=O)N1CCN(c2ncc3ncnc(Nc4ccc(Oc5cc6nnn(C)c6c(F)c5C)c(C)c4)c3n2)CC1 [Compound 137]: 100 to 500 nM
3) C=C(F)C(=O)N1CCN(c2ccc3ncnc(Nc4ccc(Oc5ccc6c(c5)nnn6C)c(C)c4)c3n2)C[C@H]1COC [Compound 362]: 500 to 1000 nM
4) C=CC(=O)N1CCN(c2ncc3ncnc(Nc4ccc(Oc5ccc6c(c5)nnn6C)c(C)c4F)c3n2)CC1(C)C [Compound 32]: 100 to 500 nM
5) C=CC(=O)N1CCN(c2ncc3ncnc(Nc4ccc(Oc5cc(F)c6c(c5)ncn6C)c(C)c4)c3n2)CC1 [Compound 64]: < 50 nM
6) Cc1cc(Nc2ncnc3cnc(N4CCN(C(=O)/C=C/CO)CC4)nc23)ccc1Oc1ccc2c(c1)nnn2C [Compound 57]: 100 to 500 nM
7) C=CC(=O)N1CCN(c2ncc3ncnc(Nc4ccc(Oc5ccn6nc(C)nc6c5)c(C)c4)c3n2)C[C@H]1C [Compound 139]: 100 to 500 nM
